- Tested on: TNK2;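 also: KINOMEscan kinase panel screen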
- Condition Info: concentration: 1 μM, replicates: in singlicate; n = 1

| Compound | %Inh |
| --- | --- |
| CCC(=O)c1c(-c2ccccc2)c2cc(Cl)ccc2c(=O)n1Cc1cc(S(C)(=O)=O)n(CCC(C)(C)O)n1 | 0% |
| COc1cc(Nc2nccc(N3CCC(NC(=O)C(C)c4ccc(Cl)cc4)C3)n2)cc(OC)c1OC (stereo not drawn) | 6% |
| Cc1nnc(-c2ccc3ncn(-c4ccc(S(C)=O)cc4)c3c2)o1 (stereo not drawn) | 0% |
| Nc1n[nH]c2nnc(-c3ccccc3)c(-c3ccccc3)c12 | 19% |
| CCCNC(=O)Nc1ccc(Oc2ncnc3ccn(C)c23)cc1 | 0% |
| CCn1c(-c2nonc2N)nc2ccccc21 | 0% |
| COc1ccc(-c2cc3c(C)nc(N)nc3n([C@H]3CC[C@H](O)CC3)c2=O)cn1 | 0% |
| COC(=O)c1c(-c2ccccc2)c2cc(C)ccc2c(=O)n1Cc1ccccc1 | 0% |
| Cc1cc(Nc2nc(-c3cccc(C)n3)nc3ccccc23)ccn1 | 0% |
